Quantity measured: melting point

Inquiry: Using the record for Cc1cccc(N2CCN(CCCCNC(=O)c3cc4ccccc4o3)CC2)c1C , report its melting point.
Reply text: 151 to 152 °C

Inquiry: I'd like to know its melting point. The compound in question is Cc1cccc(N2CCN(CCCCNC(=O)c3cc4ccccc4o3)CC2)n1
Reply text: 107 to 109 °C

Inquiry: // lookup melting point for Cc1cccc(N2CCN(CCCCNC(=O)c3ccccc3)CC2)n1
Reply text: 102 to 103 °C

Inquiry: Any idea what melting point was measured for Cc1cccc(N2CCN(CCCCN3CCn4c(cc5ccccc54)C3=O)CC2)c1 ?
Reply text: 155 to 156 °C
